Taken from PubChem BioAssay (NCI).

Test system: SK-MEL-2 melanoma
EXPERIMENT_DESCRIPTION: NCI-60 one-dose screen, 48 h
EXPERIMENTAL_CONTEXT: 10 µM unless noted
This is part of a sample that, as a whole, favours compounds with a hit. Of some 83,000 tested, about 20% had one in any assay. Calls of active or inactive are those of the source. How the source made its calls: active means growth percent below 10; inactive means the rest.
Outcome codes: active, inactive

> print(dat)
                                    compound  category
 1  COc1ccc(/C=C/c2cc(N3CCOCC3)c3cc(F)c(F)cc3n2)cc1OC  inactive
 2  Nc1c(C(=O)Nc2cccc(C(F)(F)F)c2)sc2nc3c(cc12)C(O)CCC3 (stereo unspecified)  inactive
 3  C=C1C(=O)O[C@H]2[C@H]1CC/C(Cn1cc(-c3ccc(N)cc3)nn1)=C\CC[C@@]1(C)O[C@@H]21  inactive
 4    COc1cc(Cn2c(-c3nonc3N)nc3ccccc32)ccc1C  inactive
 5  CC(C)(C)c1ccc(S(=O)(=O)Oc2ccc3c4c(c(=O)oc3c2)CCCCC4)cc1  inactive
 6     O=C(O)C(=Cc1c2ccccc2cc2ccccc12)C(=O)O  inactive
 7  COc1ccc(C(=O)c2cc(OC)c(OC)c(OC)c2)cc1/C=C/C(=O)c1ccc2c(c1)OCO2  inactive
 8   COc1cc(NCCN=C(N)NC(N)=NC(C)C)c2ncccc2c1    active
 9  CCN1C(=S)N(CC)C2Nn3c(s/c(=C4\C(=O)N(C)c5ccccc54)c3=O)=NC21 (stereo unspecified)  inactive
10                      COc1cc(Br)c(OC)cc1Br  inactive
11  COc1ncc(-c2ccc3ncnc(Nc4cccc(Cl)c4)c3c2)cc1N(S(C)(=O)=O)S(C)(=O)=O  inactive
12  COc1ncc(-c2ccc3ncnc(Nc4cccc(Cl)c4)c3c2)cc1NS(=O)(=O)CCN1CCOCC1    active
13  O=Nc1c(-c2c(O)[nH]c3ccc([N+](=O)[O-])cc23)[nH]c2ccc(O)cc12    active
14           c1cc(-c2ccc3c(c2)OCO3)n2nccc2n1  inactive
15  CN1CCN(c2ccc3cc(-c4nc5ccccc5[nH]4)c(=O)oc3c2)CC1  inactive
16  COc1ccc(/C=C2\CCCC3=C2NC(C)=NC3c2ccc(OC)c(OC)c2)cc1OC (stereo unspecified)    active
17       COc1ccc(-n2c(C)cc(-c3ccccc3)c2C)cc1  inactive
18  O=C(Nc1ccc(OCc2nnc(-c3ccc(Cl)cc3)o2)c(F)c1)Nc1ccc(Cl)c(Cl)c1  inactive
19  COc1ccc(NC(=O)CSc2nc3ccccc3c(=O)n2Cc2cc(OC)c(OC)c(OC)c2)cc1  inactive
20  CCN(CC)S(=O)(=O)c1ccc2[nH]c(=O)cc(C(=O)Nc3ccc(OC)cc3OC)c2c1  inactive
21   COc1ccc(OC)c(C(=O)c2oc3ccc(Br)cc3c2N)c1    active

----------
System: CAKI-1 renal
EXPERIMENT_DESCRIPTION: NCI-60 one-dose screen, 48 h
EXPERIMENTAL_CONTEXT: 10 µM unless noted
This is part of a sample that, as a whole, favours compounds with a hit. Of some 83,000 tested, about 20% had one in any assay. Active and inactive are the calls of the source. How the source made its calls: active means growth percent below 10; inactive means the rest.
Classes used: YES for active, NO for inactive

> print(dat)
                                    compound  category
 1  COc1ccc(S(=O)(=O)Nc2cc(/C=C\c3cc(OC)c(OC)c(OC)c3)cc(OC)c2OC)cc1OC        NO
 2  Cc1cc(Nc2nc(-c3ccc(F)cc3)nc3ccccc23)n[nH]1       YES
 3  CC(C)N(Cc1ccc(CN(C(=O)CCl)C(C)C)cc1)C(=O)CCl        NO
 4  COc1cc(C2C3=C(COC3=O)Nc3c2ccc2c3CCCC2)cc2c1OCO2 (stereo not given)        NO
 5  CCCCCCCCCCCCCCCCC(Br)C(=O)O (stereo not given)        NO
 6  CCC(c1cccc(Br)c1)C(C(=O)O)c1ccc(OC)cc1 (stereo not given)        NO
 7  NS(=O)(=O)c1ccc(CN2C(=O)c3cccc4cccc(c34)C2=O)cc1        NO
 8              COc1cc2nc(Cl)nc(NCCO)c2cc1OC        NO
 9  C=C1C(=O)O[C@H]2[C@H]1CC/C(Cn1cc(-c3ccccc3C(F)(F)F)nn1)=C\CC[C@@]1(C)O[C@@H]21       YES
10  COC(=O)CCCCN=Cc1c(O)c(O)c(C(C)C)c2cc(C)c(-c3c(C)cc4c(C(C)C)c(O)c(O)c(C=NCCCCC(=O)OC)c4c3O)c(O)c12        NO
11                  CN(C)c1nc(N)c(N=O)c(N)n1        NO
12  O=c1cc(C2NCCc3c2[nH]c2ccccc32)c2c(ccc3ccccc32)o1 (stereo not given)        NO
13  Cc1ccc2c(c1)C(=O)C(c1c(-c3[nH]c(=O)c4ccc(C)cc4c3O)c(O)c3ccccc3c1O)=NC2=O       YES
14  O=C(CC(O)c1ccncc1)c1ccccc1 (stereo not given)        NO
15  CCCC(C(=O)OCC)C(C)OC(=O)OCC (stereo not given)        NO
16  O=S(=O)(NCCNc1cc(-c2cn(-c3ccccc3)nc2-c2ccccc2)ccn1)c1cccc2ccccc12        NO
17  CCn1cc(C(=O)O)c(=O)c2cc(F)c(N3CCN(S(=O)(=O)c4ccc(OC)c(OC)c4)CC3)cc21        NO
18  O=C(O)C(Cc1ccccc1)N1C(=O)/C(=C/C(Cl)=C/c2ccc([N+](=O)[O-])cc2)SC1=S (stereo not given)       YES
19  C=C1C(=O)O[C@H]2[C@H]1CC/C(COC(=O)NCCc1ccc(Br)cc1)=C\CC[C@@]1(C)O[C@@H]21        NO
20    O=C1Nc2cc(Cl)ccc2Oc2cc(Oc3ccccc3)ccc21        NO
